- System: MS2 coat protein
- experiment.description: apparent KD of MS2 coat protein; designed switch direction (-1 OFF switch, 1 ON switch): -1; higher = weaker reporter binding
- protocol.conditions: input ligand: none
assay.endpoint: apparent KD of MS2 coat protein (nM)
Report the figure in nM without appending any unit label.

Req: Which value of apparent KD of MS2 coat protein has been reported for UUUUGUUCAGGAUAUGUAGAAUUUAACAUGAGGAUCACCCAUGUAGAUCCUGAAUAAACUACAGAAGGGAACAUUU [Mat - Exclusion 5 - Eli Mod - D15] (Eterna round: R97, puzzle: Exclusion 5) in the records?
Resp: 27.4

Req: Ok, now CUUCUCUCAUGGAAUCCUGACAUGAGGAUCACCCAUGUUGCUGAGGAUAUCCAGCGCUACGGCGCGGAGAAGGCGGCUCUUAAA [Enties] (Eterna round: R96, puzzle: Exclusion NG 3)
Resp: 17.2

Req: Ok, now GCUCCAGGAGGAUAUGCAUUCGAAAACAUGAGGAUCACCCAUGUAGGUGUCCACGUGCGAGCAGAAGGCCUAAAAC [Riqu] (Eterna round: R97, puzzle: Exclusion 5)
Resp: 646

Req: Ok, now UAUUUAAUUAACAAGCUUUACAUGAGGAUCACCCAUGUGAUCAUGCUCGUCUUAUAAUUAAUUAAUUAAUUAAUUAA [Stov1/6-A2] (Eterna round: R97, puzzle: Sensor, turn-off variant 1)
Resp: 62.8

Req: Ok, now CUAAUACAUCAGGAUAUGUGUCGUGAUAGCGACACAGAAGGGAUGACAUGAGGAUCACCCAUGUCAAAGGGUGA [eternacac ex6r4 sub23] (Eterna round: R97, puzzle: Exclusion 6)
Resp: 519

Req: Ok, now GGUGUCGUCAGAAGACAUGAGGAUCACCCAUGUAAAUGCACUGAGGAUAUACGGGCGACCGGCGUGUAGAAGGUAGAGCACGAA [Ladivequ] (Eterna round: R96, puzzle: Exclusion NG 3)
Resp: 41.6

Req: Ok, now AAUAAUAAUGUGAGGAUAUCUAGAGCUUCGGCUCUAGAGAAGGCACAUGAGGAUCACCCAUGUCUCAAUAAUAA [BmEx4/2-E4] (Eterna round: R97, puzzle: Brourd's mod of Exclusion 4)
Resp: 53.4

Req: Ok, now UACAUGAGGAUCACCCAUGUUUUGUCGUGUAUGGUAUUUAUCUAGGAUAUCAAUUGAUUAAUUUAUGAGAAGGAGAAUAUUAAU [JMF's solution 60] (Eterna round: R96, puzzle: Exclusion NG 3)
Resp: 34.4

Req: Ok, now UACUUGUUAGGAUAUCUUACAUUUGCAUCAUAGUAACCAUUGGAGAAGGGACAUGAGGAUCACCCAUGUUUGGA [tap-tap-tappy2] (Eterna round: R97, puzzle: Exclusion 4)
Resp: 31.5

Req: Ok, now GCGCGAAGGUAGGAUAUCGACGGAUCUUCCGGCCGAGAAGGACCCACAUGAGGAUCACCCAUGUGGUGAUCCUG [eternacac ex6r4 sub10] (Eterna round: R97, puzzle: Exclusion 6)
Resp: 16.5

Req: Ok, now AGGUGUAGAGGAUAUUGAGUUCUUUACAUGAGGAUCACCCAUGUCCUGGGCACCCAGGACCAAGAAGGCUACACCA [Omei Ex5 D31] (Eterna round: R97, puzzle: Exclusion 5)
Resp: 72.6

Req: Ok, now ACGUUGUCAGGAUAUCGUUAAUUUAGUUGUUUGUAUUAGUUCGAGAAGGGACAUGAGGAUCACCCAUGUUUGCA [Ex4 #31] (Eterna round: R97, puzzle: Exclusion 4)
Resp: 26.3

Req: Ok, now AAUGCCGGUGUCAGGAUAUCCGGAGGGAAACCUCCGGAGAAGGGACAUGAGGAUCACCCAUGUAUGUAACCUGC [AK-MS2ROC-r4-Bmoexclusion4-6] (Eterna round: R97, puzzle: Brourd's mod of Exclusion 4)
Resp: 22.2

Req: Ok, now CAAUACAAGCGAAGAUCCUACAUGAGGAUCACCCAUGUGCUCGUCUUAAAAGGUACUGUGACGAAAGUCACGGUACC [Eli 87 + Mat D67 4] (Eterna round: R97, puzzle: Sensor, turn-off variant 1)
Resp: 296

Req: Ok, now CUUUUGUGAGGAUAUUAGUAGUAAAUAAUUAAAAUUACUACUGAGAAGGCACAUGAGGAUCACCCAUGUUCCUC [salish99_ex4_r3_056] (Eterna round: R96, puzzle: Exclusion 4)
Resp: 37.4

Req: Ok, now UAUGGUUAAGUCAGGAUAUACUAAUAGAAGUCUGUGUAGAAGGGACAUGAGGAUCACCCAUGUAUGGUAGUGUU [Ex4 #60] (Eterna round: R97, puzzle: Brourd's mod of Exclusion 4)
Resp: 122

Req: Ok, now GUAGAGUCAGGAUAUACAAAACCAUCGAAAGAUGGAUCCAUACAUGAGGAUCACCCAUGUAGAAGGGACUCUAC [Eli x2 4.17] (Eterna round: R97, puzzle: Exclusion 2)
Resp: 17.1

Req: Ok, now ACAUGAAGAUAGGAUAUCCGCGAAAAUGGUCUAGGAGAAGGGUCUACAUGAGGAUCACCCAUGUAGCAGUGGAU [Eternabot (L1) Solution 79] (Eterna round: R97, puzzle: Exclusion 6)
Resp: 16.7

Req: Ok, now GGUGAGCUAGGAUAUGCUUUGGGCACGCAUUCCUUCGAUAAACUUGAGGAUCACCCAAGUAGAAGGAGCUUGCC [salish99_ex2_r4_030] (Eterna round: R97, puzzle: Exclusion 2)
Resp: 12.9
